# TEST DETAILS: chemical genetic growth profiling, strain panel (AID 1159580);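 further: tested at 20 µM; growth read once vehicle control cultures reached saturation at 30 °C; lower values mean less growth of the strain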
# TEST SETTINGS: S. cerevisiae deletion strains, growth OD, locus YBR171W, strain sec66
The whole screen tested about 5,500 compounds, of which about 2,000 (36%) were called active. About 18% were inconclusive and are not listed. No stated cut-off is given here; in the data, active means normalized growth mostly below about 0.91 (no sharp cut-off); inconclusive means no clear call, values can overlap the other calls; inactive means mostly above about 0.92. The list shows a part of the results.
Hello, when you answer, please use one of the following outcomes: active, inactive

Give the logged outcome of this assay for the following molecule: "CCCCCc1c2c(cc(O)c1C(=O)O)OC(=O)c1c(cc(OC)cc1C(=O)CCCC)O2"
inactive

Give the logged outcome of this assay for the following molecule: "CCCCCC(=O)Cc1cc(O)cc(O)c1C(=O)Oc1cc(CC(=O)CCCCC)c(C(=O)O)c(OC)c1"
active

Give the logged outcome of this assay for the following molecule: "O=C1[O][Bi][O]c2ccccc21"
inactive

Give the logged outcome of this assay for the following molecule: CCC1OC(=O)[C@H](C)C(=O)[C@H](C)[C@@H](OC2O[C@H](C)C[C@H](N(C)C)[C@H]2O)[C@](C)(OC)C2(CCCn3cnc(-c4cccnc4)c3)C[C@@H](C)C(=O)[C@H](C)[C@H]3N(C2)C(=O)O[C@]13C (some centres undefined)
inactive

Give the logged outcome of this assay for the following molecule: "CNC(=O)Oc1cccc2c1OC(C)(C)O2"
inactive

Give the logged outcome of this assay for the following molecule: C[C@]12CCC3c4ccc(O)cc4CCC3C1C[C@@H](O)[C@@H]2O (some centres undefined)
inactive

Give the logged outcome of this assay for the following molecule: C[C@@H]1O[C@@H](OC[C@H]2OC(Oc3c(-c4ccc(O)c(O)c4)oc4cc(O)cc(O)c4c3=O)[C@H](O)[C@@H](O)[C@@H]2O)[C@H](O)[C@H](O)[C@H]1O (some centres undefined)
inactive

Give the logged outcome of this assay for the following molecule: "O=c1cc(-c2ccc(O)cc2)oc2cc(O[C@@H]3O[C@H](CO)[C@@H](O)[C@H](O)[C@H]3O)cc(O)c12"
inactive

Give the logged outcome of this assay for the following molecule: CN[C@@H]1C(O)[C@@H](O[C@@H]2[C@@H](O)[C@H](O[C@H]3OC(CN)=CC[C@H]3N)[C@@H](N)C[C@H]2N)OC[C@]1(C)O (some centres undefined)
inactive

Give the logged outcome of this assay for the following molecule: COc1ccc2c(c1)CCC1C2CC[C@@]2(C)C1CC[C@@H]2O (some centres undefined)
inactive

Give the logged outcome of this assay for the following molecule: CC1O[C@@H](Oc2c(-c3ccc(O)c(O)c3)oc3cc(O)cc(O)c3c2=O)[C@H](O)[C@H](O)[C@H]1O (some centres undefined)
inactive

Give the logged outcome of this assay for the following molecule: C[C@]12CCC3c4ccc(OS(=O)(=O)O)cc4CCC3C1CC[C@H]2O (some centres undefined)
inactive

Give the logged outcome of this assay for the following molecule: "COc1ccc(-c2oc3cc(O[C@H]4O[C@H](CO)[C@@H](O)[C@H](O)[C@H]4O)c(OC)c(O)c3c(=O)c2OC)cc1O"
inactive

Give the logged outcome of this assay for the following molecule: "NC(=O)c1ncn([C@@H]2O[C@H](CO)[C@@H](O)[C@H]2O)n1"
inactive
